- testSystem: Estrogen receptor (Homo sapiens) (UniProt P03372)
- Sequence (P03372 whole entry, looked up): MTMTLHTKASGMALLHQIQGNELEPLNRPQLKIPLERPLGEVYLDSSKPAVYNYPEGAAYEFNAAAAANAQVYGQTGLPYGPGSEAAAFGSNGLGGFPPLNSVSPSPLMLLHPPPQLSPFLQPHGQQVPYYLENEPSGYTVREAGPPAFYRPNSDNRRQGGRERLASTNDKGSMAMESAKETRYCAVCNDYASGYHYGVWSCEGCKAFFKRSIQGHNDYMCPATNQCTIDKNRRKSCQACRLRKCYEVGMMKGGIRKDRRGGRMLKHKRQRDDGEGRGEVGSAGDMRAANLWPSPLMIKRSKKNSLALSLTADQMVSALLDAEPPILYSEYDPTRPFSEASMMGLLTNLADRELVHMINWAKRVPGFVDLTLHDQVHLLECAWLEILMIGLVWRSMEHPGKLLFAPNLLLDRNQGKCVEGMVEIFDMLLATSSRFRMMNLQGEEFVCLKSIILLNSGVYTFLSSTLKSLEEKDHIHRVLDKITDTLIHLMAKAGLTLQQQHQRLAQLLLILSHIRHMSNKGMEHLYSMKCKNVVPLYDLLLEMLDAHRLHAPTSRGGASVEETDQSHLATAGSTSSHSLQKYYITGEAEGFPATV
- assayProtocol: qHTS assay for small molecule antagonists of estrogen receptor alpha signaling (AID 588513)
- runConditions: ER-alpha-UAS-bla HEK293, beta-lactamase ratio, antagonist mode; series mostly up to 76.9 µM
Inconclusive results are not listed. The source made the active and inactive calls. The call rests on the fitted dose curve; in most records, active means well fitted curve in the direction sought with a large enough effect in the signal ratio, with a control signal flat (not every such curve was filed as active); inconclusive means small, poorly fitted or top-dose-only effect, or effect the other way, or a change in a side signal; inactive means no such curve, though single readings can be large or run the other way; the % refers to the signal ratio.
measuredQuantity: outcome

Consider the reported outcome for these compounds:
>  <compound>
Cc1ccccc1O

>  <testSystem>
Estrogen receptor (Homo sapiens) (UniProt P03372)

>  <outcome>
inactive

$$$$
>  <compound>
C[C@H]1O[C@H](OC2[C@@H](O)[C@@H](O)C(O)[C@H](O)[C@H]2O)[C@@H](N)C[C@@H]1N=C(N)C(=O)O (some centres not stated)

>  <testSystem>
Estrogen receptor (Homo sapiens) (UniProt P03372)

>  <outcome>
inactive

$$$$
>  <compound>
CCOC(=O)c1ccccc1N

>  <testSystem>
Estrogen receptor (Homo sapiens) (UniProt P03372)

>  <outcome>
inactive

$$$$
>  <compound>
Cc1ccc2cc3c(ccc4ccccc43)c3c2c1CC3

>  <testSystem>
Estrogen receptor (Homo sapiens) (UniProt P03372)

>  <outcome>
inactive

$$$$

### Prompt Would you mind telling me what outcome value was observed for CC(C)COC(=O)c1ccccc1C(=O)OCC(C)C ?
### Response inactive

### Prompt Which outcome is reported for this compound? C[C@H](CCC(=O)O)[C@H]1CC[C@H]2[C@@H]3CC[C@@H]4C[C@H](O)CC[C@]4(C)[C@H]3CC[C@]12C
### Response inactive

### Prompt Need outcome, item COC1=CC(=O)OC(CCc2ccc3c(c2)OCO3)C1 (configuration not stated)
### Response inactive

---

- Tested on: GB4
- assayProtocol: qHTS profiling for inhibitors of Plasmodium falciparum proliferation (AID 504749); further: nearly all actives have a fitted effect of over 60% in size; further: potency means the concentration at half of the fitted maximal effect
- runConditions: P. falciparum in erythrocytes, SYBR Green DNA, 72 h; series mostly up to 28.7 µM
Inconclusive results are not listed. Active and inactive are the calls of the source. Calls follow the shape of the dose curve; as a rule, active = well fitted inhibition curve with a large enough effect; inconclusive = small, poorly fitted or top-dose-only effect; inactive = flat fitted curve, though single readings scatter.
measuredQuantity: Potency

Observe how each entry below is paired with its result.
>  <compound>
CCN(CC)CCO[C@H]1CC[C@@]2(C)C(=CC[C@@H]3[C@H]2CC[C@]2(C)C(=O)CC[C@H]32)C1

>  <measuredQuantity>
Potency

>  <experimentalValue>
inactive

$$$$
>  <compound>
CC(C)[C@@]1(NC(=O)[C@H]2CC3c4cccc5[nH]cc(c45)C[C@H]3N(C)C2)O[C@@]2(O)C3CCCN3C(=O)[C@@H](Cc3ccccc3)N2C1=O (stereo partly specified)

>  <measuredQuantity>
Potency

>  <experimentalValue>
3.01 µM (active)

$$$$
>  <compound>
CO[C@H]1[C@@H](O)CC(OC2[C@@H](O)CC(OC3[C@@H](O)C[C@H](OC4CC[C@@]5(C)C(CCC6C5CC(O)[C@]5(C)[C@H](C7=CC(=O)OC7)CCC65O)C4)O[C@@H]3C)O[C@@H]2C)O[C@@H]1C (stereo partly specified)

>  <measuredQuantity>
Potency

>  <experimentalValue>
inactive

$$$$
>  <compound>
C[N+](C)(C)CC(=O)[O-]

>  <measuredQuantity>
Potency

>  <experimentalValue>
inactive

$$$$
>  <compound>
Cc1cccc([C@H](C)c2cnc[nH]2)c1C

>  <measuredQuantity>
Potency

>  <experimentalValue>
8.49 µM (active)

$$$$

### Prompt Return Potency measured with GB4 given this compound: Oc1cc[c]([Hg][Cl])cc1
### Response 6.75 µM (active)
